Target: Tyrosine-protein kinase Tec (Homo sapiens); note: in the data inactive means no Kd found up to 30 µM
Sequence (P42680 whole entry): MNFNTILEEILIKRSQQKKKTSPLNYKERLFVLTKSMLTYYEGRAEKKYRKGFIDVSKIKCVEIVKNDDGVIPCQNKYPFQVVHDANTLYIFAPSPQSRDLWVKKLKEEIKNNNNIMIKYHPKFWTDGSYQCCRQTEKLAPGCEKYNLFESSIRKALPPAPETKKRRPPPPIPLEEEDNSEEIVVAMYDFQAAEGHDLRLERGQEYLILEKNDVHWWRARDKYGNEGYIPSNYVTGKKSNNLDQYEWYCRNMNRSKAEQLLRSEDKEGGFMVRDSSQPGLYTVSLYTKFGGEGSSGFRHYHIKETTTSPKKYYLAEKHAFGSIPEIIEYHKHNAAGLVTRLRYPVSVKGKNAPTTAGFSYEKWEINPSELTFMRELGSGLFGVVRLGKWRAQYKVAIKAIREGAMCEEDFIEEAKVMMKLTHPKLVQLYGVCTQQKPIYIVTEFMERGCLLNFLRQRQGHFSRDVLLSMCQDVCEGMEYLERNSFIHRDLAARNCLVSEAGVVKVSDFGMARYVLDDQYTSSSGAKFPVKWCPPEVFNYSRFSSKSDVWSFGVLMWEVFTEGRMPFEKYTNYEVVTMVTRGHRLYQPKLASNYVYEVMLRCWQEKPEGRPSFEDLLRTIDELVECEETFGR
Active and inactive are the calls of the source.
readout kind: Kd

smiles representation: COc1cc2nccc(Oc3ccc(NC(=O)NC4CC4)c(Cl)c3)c2cc1C(N)=O
tested on: Tyrosine-protein kinase Tec (Homo sapiens); note: in the data inactive means no Kd found up to 30 µM
Kd: > 30 µM (inactive)
--
smiles representation: CN1CCC(COc2cnc(-c3cccc(Cn4nc(-c5cccc(C#N)c5)ccc4=O)c3)nc2)CC1
tested on: Tyrosine-protein kinase Tec (Homo sapiens); note: in the data inactive means no Kd found up to 30 µM
Kd: > 30 µM (inactive)
--
smiles representation: O=c1sn(-c2cccc3ccccc23)c(=O)n1Cc1ccccc1
tested on: Tyrosine-protein kinase Tec (Homo sapiens); note: in the data inactive means no Kd found up to 30 µM
Kd: > 30 µM (inactive)

# return Kd for each item in the list
1. Cc1c(F)cc(C(=O)NC2CC2)cc1-c1ccc(C(=O)NCC(C)(C)C)cn1
2. CC(=O)Nc1cccc(-n2c(=O)n(C3CC3)c(=O)c3c(Nc4ccc(I)cc4F)n(C)c(=O)c(C)c32)c1
3. Cc1cc([C@@H](C)Nc2ccccc2C(=O)O)c2nc(N3CCOCC3)cc(=O)n2c1

[reply]
["> 30 µM (inactive)", "> 30 µM (inactive)", "> 30 µM (inactive)"]

###

Target: Mitogen-activated protein kinase kinase kinase 1 (Homo sapiens, UniProt Q13233); note: in the data inactive means no Kd found up to 30 µM
Sequence (Q13233 whole entry): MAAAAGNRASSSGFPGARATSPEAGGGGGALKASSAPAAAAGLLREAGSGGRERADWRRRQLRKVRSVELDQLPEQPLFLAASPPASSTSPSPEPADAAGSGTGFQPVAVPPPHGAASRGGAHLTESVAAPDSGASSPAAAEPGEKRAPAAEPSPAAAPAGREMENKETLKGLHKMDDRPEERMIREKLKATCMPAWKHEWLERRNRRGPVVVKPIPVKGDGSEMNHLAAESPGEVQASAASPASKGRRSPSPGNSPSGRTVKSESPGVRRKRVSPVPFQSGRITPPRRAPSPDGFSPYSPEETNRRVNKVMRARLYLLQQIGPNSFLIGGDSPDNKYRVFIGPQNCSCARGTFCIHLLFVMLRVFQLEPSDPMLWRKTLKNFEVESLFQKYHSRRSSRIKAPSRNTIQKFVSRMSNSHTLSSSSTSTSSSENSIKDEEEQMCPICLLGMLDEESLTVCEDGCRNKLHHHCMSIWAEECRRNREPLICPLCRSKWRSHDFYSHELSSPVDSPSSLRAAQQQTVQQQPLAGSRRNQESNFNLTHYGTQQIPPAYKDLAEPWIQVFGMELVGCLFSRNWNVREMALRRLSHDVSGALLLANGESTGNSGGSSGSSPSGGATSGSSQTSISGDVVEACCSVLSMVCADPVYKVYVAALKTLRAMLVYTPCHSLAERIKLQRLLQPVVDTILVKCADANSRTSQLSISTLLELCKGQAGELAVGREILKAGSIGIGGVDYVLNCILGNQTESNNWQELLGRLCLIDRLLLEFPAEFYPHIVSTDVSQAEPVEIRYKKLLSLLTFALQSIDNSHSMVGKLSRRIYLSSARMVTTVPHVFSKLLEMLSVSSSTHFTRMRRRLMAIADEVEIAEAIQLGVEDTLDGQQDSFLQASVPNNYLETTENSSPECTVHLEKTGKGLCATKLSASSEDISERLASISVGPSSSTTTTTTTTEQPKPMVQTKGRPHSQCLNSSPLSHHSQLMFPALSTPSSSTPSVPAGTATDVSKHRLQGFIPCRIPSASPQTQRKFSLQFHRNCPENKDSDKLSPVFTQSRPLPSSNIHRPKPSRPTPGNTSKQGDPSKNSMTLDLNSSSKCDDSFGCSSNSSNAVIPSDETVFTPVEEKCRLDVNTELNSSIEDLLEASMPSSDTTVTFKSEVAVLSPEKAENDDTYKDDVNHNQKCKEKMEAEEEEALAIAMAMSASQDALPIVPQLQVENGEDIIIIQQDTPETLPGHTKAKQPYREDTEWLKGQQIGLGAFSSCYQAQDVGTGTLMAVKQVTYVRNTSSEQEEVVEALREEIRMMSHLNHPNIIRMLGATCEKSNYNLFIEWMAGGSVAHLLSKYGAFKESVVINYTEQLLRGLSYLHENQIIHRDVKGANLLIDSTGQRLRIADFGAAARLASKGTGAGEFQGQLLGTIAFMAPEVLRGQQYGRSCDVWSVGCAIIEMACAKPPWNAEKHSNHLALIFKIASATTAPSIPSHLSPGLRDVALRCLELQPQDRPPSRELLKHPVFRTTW
The source made the active and inactive calls.
Pick one: active, inactive

compound: N[C@@H]1CCCN(c2c(/C=C3\SC(=O)NC3=O)cccc2-c2ccccc2)C1
assigned label: inactive
//
compound: Cn1cc(-c2ccc(F)c(C(F)(F)F)c2)nc1C1CCN(c2ncnc3[nH]ncc23)CC1
assigned label: inactive
//
compound: COCCNCc1ccc(-c2cc3nccc(Oc4ccc(NC(=S)NC(=O)Cc5ccc(F)cc5)cc4F)c3s2)nc1
assigned label: inactive
//
compound: COc1cc(N2CCC(N3CCN(C)CC3)CC2)ccc1Nc1ncnc(Nc2ccccc2S(=O)(=O)C(C)C)n1
assigned label: inactive
//
compound: Cc1ccc(NC(=O)c2ccc(CN3CC[C@H](N(C)C)C3)c(C(F)(F)F)c2)cc1Nc1nccc(-c2cncnc2)n1
assigned label: inactive
//
compound: CN(C)C(=O)c1cc2cnc(Nc3ccc(N4CCNCC4)cn3)nc2n1C1CCCC1
assigned label: active
//
compound: O=C(c1ccc(F)c(F)c1Nc1ccc(I)cc1F)N1CC(O)([C@@H]2CCCCN2)C1
assigned label: inactive
//
compound: CN1N=C(N)c2cn([C@@H]3O[C@H](COP(=O)(O)O)[C@@H](O)[C@H]3O)c3ncnc1c23 [TRICIRIBINE PHOSPHATE]
assigned label: inactive

[ask] I'd appreciate the recorded outcome for CC(C)Nc1cc(-c2c[nH]c(C(=O)N[C@H](CO)c3cccc(Cl)c3)c2)c(Cl)cn1 from this test.
[reply] inactive

[ask] What classification did O=C(O)[C@]1(Cc2cccc(Nc3nccs3)n2)CC[C@@H](Oc2cccc(Cl)c2F)CC1 end up with in this test?
[reply] inactive
